Where do these numbers come from? They come from ChEMBL document CHEMBL5303304.

Tested on: Fibroblast
Method summary: Incucyte cell viability with human fibroblast; further: unitless GR value; below 1 slowed growth and below 0 cell loss
Assay type: toxicity, cell-based
Applied conditions: 24 h, 10 µM, compound concentration 10 uM, replicate number 1
Criterion: Growth Rate strictly under 0.1. Met: T. Not met: F.

Check out these entries, answers already filled in.
* Cc1ccc(C(=O)Nc2cc(N3CCN(C)CC3)cc(C(F)(F)F)c2)cc1-n1cc(-c2cnn(C)c2C)nn1.Cl | F
* CC(CNS(=O)(=O)C(C)C)c1ccc(-c2ccc(C#N)cc2)cc1 (stereo not given) | F

Lookup: Could you please tell me whether Growth Rate recorded for CN[C@@H](C)C/C=C/c1cncc(OC(C)C)c1 is less than 0.1?
Found: F

Lookup: Could you please tell me whether Growth Rate recorded for CC[C@H](C(=O)Nc1ccccc1N1CCCC1)c1ccccc1 is less than 0.1?
Found: T

Lookup: Criterion: Growth Rate strictly below 0.1. Is it met by CN(C)Cc1cccc(NC(=C2C(=O)Nc3cc(C(N)=O)ccc32)c2ccccc2)c1 ?
Found: F

====

System: U2OS
Method summary: Incucyte cell viability with U2OS; further: unitless GR value; below 1 slowed growth and below 0 cell loss
Type: toxicity, cell-based
Applied conditions: human, 6 h, 10 µM, compound concentration 10 uM, replicate number 2
Kind request: treat 0.7 as inclusive, so Growth Rate at 0.7 or higher is true (1), anything lower is false (0).

• OCC1OC(n2cnc3cc(Cl)c(Cl)cc32)C(O)C1O (centres undefined) = true (1)
• CNC(=O)c1ccc(C)c(-n2c(C)cc(OCc3ccc(F)cc3F)c(Br)c2=O)c1 = false (0)
• CC(C)C[C@H](NC(=O)c1cc2ccccc2s1)C(=O)N1CCN(C(=O)[C@H](CO)NS(=O)(=O)c2ccc(Cl)cc2Cl)CC1 = false (0)
• COc1cc(C)c(S(=O)(=O)N(C)CCC(=O)N[C@H]2CC[C@@H](N3CCC4CN(C)CC4C3)CC2)c(C)c1.Cl.Cl (some centres undefined) = true (1)
• CS(C)(=O)=Nc1ccc(-c2ccc(-c3nc4[nH]c(O[C@@H]5CO[C@H]6[C@@H]5OC[C@H]6O)nc4cc3Cl)cc2)cc1 = true (1)

Lookup: Has COc1cc(NC(=O)c2ccc(-c3ccc(Cl)cc3)o2)cc(OC)c1 a recorded Growth Rate greater than or equal to 0.7?
Found: false (0)

====

Give Growth Rate for every item shown.
Test system: Fibroblast
Method summary: Incucyte cell viability with human fibroblast; further: unitless GR value; below 1 slowed growth and below 0 cell loss
Type: toxicity, cell-based
Applied conditions: 24 h, 10 µM, compound concentration 10 uM, replicate number 1
One number for each entry.

A selection of reference data follows.
- CCN(c1ccccc1)c1cc(NC)[n+](C)c(C)n1.[Cl-]: 0.44
- CN[C@@H](C)C(=O)N[C@H](C(=O)N1CCC[C@H]1C(=O)N[C@H]1c2ccccc2C[C@H]1OCC#CC#CCO[C@@H]1Cc2ccccc2[C@@H]1NC(=O)[C@@H]1CCCN1C(=O)[C@@H](NC(=O)[C@H](C)NC)C1CCCCC1)C1CCCCC1: 0.63
- Cn1nccc1Nc1nccc(-c2cc3c(s2)C(C)(C)N(CCN2CCOCC2)C3=O)n1 [TEMUTERKIB]: 0.12

Next up:
Lookup: Quickly give me recorded Growth Rate for CC(C)S(=O)(=O)c1ccccc1Nc1nc(N[C@@H]2CCCN(CCCCCCCNC(=O)COc3cccc4c3C(=O)N(C3CCC(=O)N(C)C3=O)C4=O)C2)ncc1Cl (some centres undefined)
Found: -0.23
